TEST TARGET: Fuc(a1-2)[Gal(a1-3)]Gal
ASSAY SUMMARY: glycan array binding signal (z-score within array); higher = stronger binding
CONDITION SUMMARY: glycan notation: IUPAC condensed, linker removed
Only a selection was taken, and the strongest signals are over-represented in it overall.
In this section we review reported glycan array binding signal (z-score) values for a set of binders.

{"columns": ["BINDER", "glycan array binding signal (z-score)"],
 "data": [
  ["AICL (Homo sapiens), Q92478 (protein) MMTKHKKCFIIVGVLITTNIITLIVKLTRDSQSLCPYDWIGFQNKCYYFSKEEGDWNSSKYNCSTQHADLTIIDNIEEMNFLRRYKCSSDHWIGLKMAKNRTGQWVDGATFTKSFGMRGSEGCAYLSDDGAATARCYTERKWICRKRIH", -0.508],
  ["BDCA-2 (Homo sapiens), Q8WTT0 (protein) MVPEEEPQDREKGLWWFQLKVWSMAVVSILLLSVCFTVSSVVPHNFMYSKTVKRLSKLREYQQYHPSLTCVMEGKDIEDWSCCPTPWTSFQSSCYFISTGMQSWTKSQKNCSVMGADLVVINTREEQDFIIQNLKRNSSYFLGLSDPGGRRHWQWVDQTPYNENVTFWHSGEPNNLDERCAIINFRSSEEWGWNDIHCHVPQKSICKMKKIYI", -0.099],
  ["MpAFP NterminalRI GFP (Marinomonas primoryensis) (protein) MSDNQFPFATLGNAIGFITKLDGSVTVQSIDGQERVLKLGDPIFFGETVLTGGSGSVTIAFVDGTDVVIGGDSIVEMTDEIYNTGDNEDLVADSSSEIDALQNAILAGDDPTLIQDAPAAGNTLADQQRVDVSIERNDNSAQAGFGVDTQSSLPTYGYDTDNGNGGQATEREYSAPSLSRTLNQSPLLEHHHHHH", -0.494]
]}

These data points were gathered from the supplement of paper PMC8728848.
